EXPERIMENTAL SYSTEM: Adenosine receptor A1 (Homo sapiens, UniProt P30542, L250A)
Would you kindly list pKd for each of these compounds?
One number for each entry, as −log10 of the molar value.

CCCn1c(=O)c2[nH]c(-c3ccc(OCC(=O)NCCNC(=O)CCNC(=O)CCCCNC(=O)CCCCCNC(=O)COc4ccc(/C=C/C5=[N+]6C(=Cc7ccc(-c8cccs8)n7[B-]6(F)F)C=C5)cc4)cc3)nc2n(CCC)c1=O
6.80

Let us move to another entry and its pKd.
-- ask What pKd value was documented for this compound, COc1cc(Nc2nc(C#N)cc3c(-c4ccccc4)n[nH]c23)cc(OC)c1OC ?
-- reply 8.44

###

Would you kindly list pKd for each of these molecules?
EXPERIMENTAL SYSTEM: UniProtKB P30542
Sequence (P30542 whole entry): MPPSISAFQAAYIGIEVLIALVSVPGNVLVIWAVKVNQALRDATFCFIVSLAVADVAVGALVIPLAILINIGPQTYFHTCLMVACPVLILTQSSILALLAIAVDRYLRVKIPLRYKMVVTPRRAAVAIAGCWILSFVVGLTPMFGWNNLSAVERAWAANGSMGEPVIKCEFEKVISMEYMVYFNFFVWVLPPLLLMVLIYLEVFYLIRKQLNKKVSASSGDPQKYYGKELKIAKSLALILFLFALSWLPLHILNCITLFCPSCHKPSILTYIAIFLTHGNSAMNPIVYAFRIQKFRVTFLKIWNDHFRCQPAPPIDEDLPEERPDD
RUN DESCRIPTION: Binding affinity to Nluc-A1R (unknown origin) expressed in HEK293 cells by nanoBRET assay
Type: cell-based
Give bare numbers, as −log10 of the molar value.

Consider the following illustrative entries.
COc1cc(Nc2nc(CNCc3ccccc3)cc3c(-c4ccccc4)n[nH]c23)cc(OC)c1OC
6.37
O=C(CNc1ccccc1)Nc1n[nH]c2cnc(Nc3ccccc3)cc12
6.55
COc1cc(Nc2nc(Cl)cc3c(C(C)C)n[nH]c23)cc(OC)c1OC
6.55
COc1cc(Nc2nc(C#N)cc3cn[nH]c23)cc(OC)c1OC
6.99
N#Cc1cc2c(-c3ccccc3)n[nH]c2c(Nc2ccccc2)n1
7.21

Give pKd for each listed item.
1. Cn1nc(NC(=O)CNc2ccccc2)c2cc(Nc3ccccc3)ncc21
2. COc1cc(Nc2nc(C#N)cc3c(-c4ccccc4)n[nH]c23)cc(OC)c1OC
3. COc1cc(Nc2nc(CN)cc3c(-c4ccccc4)n[nH]c23)cc(OC)c1OC
4. Cn1nc(NC(=O)c2ccccc2)c2cc(Nc3ccccc3)ncc21

-- reply
1: 6.40; 2: 8.76; 3: 7.39; 4: 6.07

###

EXPERIMENTAL SYSTEM: UniProt:P0DMS8
Sequence (P0DMS8 whole entry): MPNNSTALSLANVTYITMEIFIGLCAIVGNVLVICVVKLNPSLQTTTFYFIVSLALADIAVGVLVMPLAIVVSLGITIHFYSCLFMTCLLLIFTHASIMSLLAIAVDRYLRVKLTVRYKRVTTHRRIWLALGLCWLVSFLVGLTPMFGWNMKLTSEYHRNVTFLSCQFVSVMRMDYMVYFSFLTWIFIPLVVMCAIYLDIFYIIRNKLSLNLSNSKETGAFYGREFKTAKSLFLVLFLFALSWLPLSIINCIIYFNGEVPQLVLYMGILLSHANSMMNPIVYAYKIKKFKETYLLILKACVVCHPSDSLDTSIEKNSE
RUN DESCRIPTION: Binding affinity to wild type A3R (unknown origin) expressed in Flp-In-CHO cells assessed as dissociation constant by Schild analysis
Format: cell-based
Label scheme, based on Kd: low range = under 200 nM, mid range = from 200 nM up to 300 nM, high range = 300 nM and over

-- ask Form field 'band' for COc1cc(Nc2nc(C#N)cc3c(C(C)C)n[nH]c23)cc(OC)c1OC
-- reply high range

-- ask Form field 'band' for N#Cc1cc2c(-c3ccccc3)n[nH]c2c(Nc2ccccc2)n1
-- reply low range

###

EXPERIMENTAL SYSTEM: Adenosine receptor A1 (Homo sapiens, UniProt P30542, E172A)
RUN DESCRIPTION: Binding affinity to A1R E172 5.30A mutant (unknown origin) by saturation NanoBRET binding assay
COND: read-out: Kd
READOUT KIND: pKd
Answers are plain numbers, as −log10 of the molar value.

-- ask What pKd value was documented for this molecule, CCCn1c(=O)c2[nH]c(-c3ccc(OCC(=O)NCCNC(=O)CCNC(=O)CCCCNC(=O)CCCCCNC(=O)COc4ccc(/C=C/C5=[N+]6C(=Cc7ccc(-c8cccs8)n7[B-]6(F)F)C=C5)cc4)cc3)nc2n(CCC)c1=O ?
-- reply 6.94

###

EXPERIMENTAL SYSTEM: Adenosine receptor A1 (Homo sapiens)
Sequence (P30542 whole entry): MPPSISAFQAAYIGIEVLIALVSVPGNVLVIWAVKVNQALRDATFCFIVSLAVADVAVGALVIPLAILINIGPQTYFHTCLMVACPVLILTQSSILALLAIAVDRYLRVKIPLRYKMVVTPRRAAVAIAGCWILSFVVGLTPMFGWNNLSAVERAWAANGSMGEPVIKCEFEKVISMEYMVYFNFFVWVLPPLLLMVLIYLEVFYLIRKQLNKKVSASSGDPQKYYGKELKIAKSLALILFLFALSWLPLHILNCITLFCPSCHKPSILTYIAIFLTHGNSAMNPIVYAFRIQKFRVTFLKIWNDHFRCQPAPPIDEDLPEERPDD
RUN DESCRIPTION: Binding affinity to wild type A1R (unknown origin) by saturation NanoBRET binding assay
READOUT KIND: Kd (nM)
One number for each entry, in nM.

-- ask What Kd value was documented for this compound, COc1cc(Nc2nc(C#N)cc3c(-c4ccccc4)n[nH]c23)cc(OC)c1OC ?
-- reply 13.5

###

EXPERIMENTAL SYSTEM: Adenosine receptor A1 (Homo sapiens, UniProt P30542, H251A)
RUN DESCRIPTION: Binding affinity to A1R H251 6.52A mutant (unknown origin) by saturation NanoBRET binding assay
COND: read-out: Kd
READOUT KIND: Kd (nM)
Answers are plain numbers, in nM.

-- ask What Kd value was documented for this molecule, CCCn1c(=O)c2[nH]c(-c3ccc(OCC(=O)NCCNC(=O)CCNC(=O)CCCCNC(=O)CCCCCNC(=O)COc4ccc(/C=C/C5=[N+]6C(=Cc7ccc(-c8cccs8)n7[B-]6(F)F)C=C5)cc4)cc3)nc2n(CCC)c1=O ?
-- reply 145

###

EXPERIMENTAL SYSTEM: Adenosine receptor A3 (Homo sapiens, UniProt P0DMS8)
RUN DESCRIPTION: Binding affinity to wild type A3R (unknown origin) expressed in Flp-In-CHO cells assessed as dissociation constant by Schild analysis
Format: cell-based
READOUT KIND: Kd (nM)
One number for each entry, in nM.

Cn1nc(NC(=O)Nc2ccccc2)c2ccnc(NC3CCCCC3)c21
302
Cn1nc(NC(=O)c2ccccc2)c2cc(Nc3ccccc3)ncc21
170
COc1cc(Nc2nccc3c(-c4ccccc4)n[nH]c23)cc(OC)c1OC
251

Give Kd for each listed item.
1. COc1cc(Nc2nc(CNCc3ccccc3)cc3c(-c4ccccc4)n[nH]c23)cc(OC)c1OC
2. COc1cc(Nc2nc(Cl)cc3c(C(C)C)n[nH]c23)cc(OC)c1OC

-- reply
1. 158
2. 550

Give Kd for each listed item.
1. COc1cc(Nc2nc(Cl)cc3c(-c4ccccc4)n[nH]c23)cc(OC)c1OC
2. O=C(CNc1ccccc1)Nc1n[nH]c2cnc(Nc3ccccc3)cc12
3. COc1cc(Nc2nc(CN)cc3c(-c4ccccc4)n[nH]c23)cc(OC)c1OC

-- reply
[89.1, 490, 257]
